Target: USP1/UAF1 complex (Homo sapiens, UniProt O94782, G670A/G671A)
Construct: This modified full length USP1 clone was PCR amplified and subcloned into pFastBac-HT vectors; His tag (N); made in house; host or cells: Sf9 insect cells (baculovirus)
Sequence (O94782 whole entry G670A/G671A): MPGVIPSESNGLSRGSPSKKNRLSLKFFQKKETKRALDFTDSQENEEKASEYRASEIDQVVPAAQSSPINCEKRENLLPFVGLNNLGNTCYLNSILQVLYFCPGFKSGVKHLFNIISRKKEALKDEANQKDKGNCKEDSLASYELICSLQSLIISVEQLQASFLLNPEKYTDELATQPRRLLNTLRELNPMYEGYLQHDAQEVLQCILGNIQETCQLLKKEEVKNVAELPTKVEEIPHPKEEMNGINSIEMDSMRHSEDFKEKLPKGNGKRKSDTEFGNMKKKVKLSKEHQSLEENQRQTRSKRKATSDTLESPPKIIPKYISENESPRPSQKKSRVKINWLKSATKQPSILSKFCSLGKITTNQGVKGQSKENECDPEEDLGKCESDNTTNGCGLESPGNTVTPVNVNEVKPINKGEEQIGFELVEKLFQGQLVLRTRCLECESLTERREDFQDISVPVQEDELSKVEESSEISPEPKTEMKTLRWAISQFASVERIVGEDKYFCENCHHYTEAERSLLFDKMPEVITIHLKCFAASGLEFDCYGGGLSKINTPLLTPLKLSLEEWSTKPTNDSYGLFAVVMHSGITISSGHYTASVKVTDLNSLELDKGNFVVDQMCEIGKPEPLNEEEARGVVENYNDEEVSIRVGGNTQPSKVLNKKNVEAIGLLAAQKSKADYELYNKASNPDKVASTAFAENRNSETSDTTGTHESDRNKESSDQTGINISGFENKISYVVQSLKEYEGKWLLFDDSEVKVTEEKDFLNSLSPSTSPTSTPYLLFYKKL
Sequence (Q8TAF3 whole entry partner): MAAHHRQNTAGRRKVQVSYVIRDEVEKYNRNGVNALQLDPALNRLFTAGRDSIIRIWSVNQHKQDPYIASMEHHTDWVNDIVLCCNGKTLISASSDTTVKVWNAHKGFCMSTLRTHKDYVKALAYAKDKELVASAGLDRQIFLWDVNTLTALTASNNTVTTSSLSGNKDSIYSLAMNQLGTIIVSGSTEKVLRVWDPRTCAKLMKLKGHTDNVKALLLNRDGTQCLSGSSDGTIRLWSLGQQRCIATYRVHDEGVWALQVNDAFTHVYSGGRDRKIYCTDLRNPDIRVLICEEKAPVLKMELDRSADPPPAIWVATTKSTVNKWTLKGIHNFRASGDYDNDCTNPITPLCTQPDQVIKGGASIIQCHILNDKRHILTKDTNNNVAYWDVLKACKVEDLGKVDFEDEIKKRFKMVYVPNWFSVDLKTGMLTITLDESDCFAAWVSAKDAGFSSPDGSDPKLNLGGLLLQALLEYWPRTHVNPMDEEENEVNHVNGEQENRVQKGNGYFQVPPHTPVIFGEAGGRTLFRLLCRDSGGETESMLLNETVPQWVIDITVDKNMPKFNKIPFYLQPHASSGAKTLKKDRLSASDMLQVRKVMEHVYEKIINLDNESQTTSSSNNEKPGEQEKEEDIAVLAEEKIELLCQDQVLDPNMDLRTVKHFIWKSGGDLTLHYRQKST
Assay: ubiquitin-AMC in vitro deubiquitination enzyme assay
Assay type: biochemical
Conditions: 4 hour preincubation; AMC-Ub in vitro enzyme assay; read-out: IC50
measure: IC50 (µM)
// units = µM; emit number, no label

Please review the following examples before continuing.
• O=C1Cc2ccccc2C(=O)N1Cc1ccco1 = 7.5
• COc1ccc(CN2C(=O)Cc3ccccc3C2=O)cc1OC = 2.4

q: // lookup IC50 for O=C1c2ccccc2C(=O)c2oc(-c3ccc(F)cc3)nc21
a: 0.134
